These measurements were taken from patent US11613527B2.

- Assay Text: Solubility after 24 hrs in Fasted State Simulated Intestinal Fluid (FaSSIF)
- Assay type: physicochemical
- Particulars: Fasted State Simulated Intestinal Fluid (FaSSIF), thermodynamic from solid, 24 hrs at 37° C., nominal concentration 1 mg/mL (as free base)
Measured Endpoint: solubility at 24 h (µg/mL)

As a guide, the following entries are already answered.
COCc1nn(Cc2cnc(N3CCCC3)nc2)cc1C(=O)NCc1c(-n2cc(C(F)F)nn2)ccc(OC)c1F [RC7, reference compound] ... 10
COCc1nn(Cc2cnc(N3CCCC3)nc2)cc1C(=O)NCc1c(-n2ccnn2)ccc(OC)c1F [RC5, reference compound] ... 20
COCc1nn(Cc2ccc3c(c2)CN(C)CC3)cc1C(=O)NCc1c(-n2cnc(C(F)(F)F)n2)ccc(OC)c1F ... 860

A. COCc1nn(Cc2ccc3c(c2)CNCC32CC2)cc1C(=O)NCc1c(-n2cc(C)nn2)ccc(OC)c1F
B. COCc1nn(Cc2ccc3nc(C)ccc3c2)cc1C(=O)NCc1c(-n2cnnn2)ccc(OC)c1F [RC2, reference compound]
Ask | // compare measured solubility at 24 h, left A , right B , return larger Please respond with the label that marks your chosen entry.
Reply | A

---

- Measured Target: Human plasma kallikrein (Homo sapiens (Human), UniProt P03952)
- Sequence (P03952 391-638): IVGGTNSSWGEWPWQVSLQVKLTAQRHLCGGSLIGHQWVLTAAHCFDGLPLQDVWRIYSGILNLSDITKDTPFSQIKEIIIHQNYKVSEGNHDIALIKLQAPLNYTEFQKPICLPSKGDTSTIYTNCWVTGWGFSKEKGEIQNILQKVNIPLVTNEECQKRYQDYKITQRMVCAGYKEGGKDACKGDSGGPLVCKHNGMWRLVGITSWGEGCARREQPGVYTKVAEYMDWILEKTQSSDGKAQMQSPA
- Sequence (P03952 20-390 partner): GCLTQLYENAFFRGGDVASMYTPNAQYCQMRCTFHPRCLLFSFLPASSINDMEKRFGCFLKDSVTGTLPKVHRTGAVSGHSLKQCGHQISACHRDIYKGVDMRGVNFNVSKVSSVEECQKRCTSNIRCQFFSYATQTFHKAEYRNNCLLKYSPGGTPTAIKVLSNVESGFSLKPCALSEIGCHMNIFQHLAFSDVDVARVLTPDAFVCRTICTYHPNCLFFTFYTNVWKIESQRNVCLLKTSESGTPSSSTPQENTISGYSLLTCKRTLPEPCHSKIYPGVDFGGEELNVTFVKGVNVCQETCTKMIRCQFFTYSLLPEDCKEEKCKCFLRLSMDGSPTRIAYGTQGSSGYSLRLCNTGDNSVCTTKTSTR
- Assay Text: Determination of the IC50 for plasma kallikrein (fluorogenic substrate H-DPro-Phe-Arg-AFC)
- Particulars: class symbols A-D, read-out: IC50 (human PKal)
pIC50: −log10 of the molar value.
Measured Endpoint: pIC50

As a guide, the following entries are already answered.
COCc1nn(Cc2ccc3c(c2)CCN(C)CC3)cc1C(=O)NCc1c(-n2cnc(C(F)(F)F)n2)ccc(OC)c1F ... > 8.00
COc1ccc(-n2cc(C)nn2)c(CNC(=O)c2cn(Cc3ccc4c(n3)CCN(C)C4)nc2C(F)(F)F)c1F ... 7.52 to 8.00
COCc1nc(C(=O)NCc2c(-n3cc(C)nn3)ccc(OC)c2F)cn1Cc1ccc2c(c1)CN(C)CC2 ... 7.52 to 8.00
COCc1nn(Cc2ccc3c(c2)CCN(C(C)C)C3)cc1C(=O)NCc1c(-n2cnc(C(F)(F)F)n2)ccc(OC)c1F ... > 8.00

Ask | Give the measured pIC50 for "COc1ccc(-n2cnc(C(F)(F)F)n2)c(CNC(=O)c2cnn(Cc3ccc4c(c3)CN(C)CC4)c2)c1F"
Reply | > 8.00

Ask | Give the measured pIC50 for COCc1nn(Cc2cnc(N3CCCC3)nc2)cc1C(=O)NCc1c(-n2cc(C(F)F)nn2)ccc(OC)c1F [RC7, reference compound]
Reply | > 8.00

Ask | Give the measured pIC50 for "CCN1CCc2ccc(Cn3cc(C(=O)NCc4c(-n5cnc(C(F)F)n5)ccc(OC)c4F)c(COC)n3)cc2C1"
Reply | > 8.00

Ask | Give the measured pIC50 for "COCc1nn(Cc2cc(F)cc3c2CCN(C)C3)cc1C(=O)NCc1c(-n2cc(C)nn2)ccc(OC)c1F"
Reply | 7.00 to 7.52

Ask | Give the measured pIC50 for "COCc1nn(Cc2ccc3c(c2)CCN(C2CCC2)C3)cc1C(=O)NCc1c(-n2cc(C)nn2)ccc(OC)c1F"
Reply | 7.52 to 8.00

Ask | Give the measured pIC50 for "COc1ccc(-n2cc(C)nn2)c(CNC(=O)c2cn(Cc3cnc4c(c3)CCN(C)C4)nc2C(F)F)c1F"
Reply | > 8.00

Ask | Give the measured pIC50 for "CCN1CCc2cc(Cn3cc(C(=O)NCc4c(-n5cc(C)nn5)ccc(OC)c4F)c(COC)n3)ccc2C1"
Reply | > 8.00

Ask | Give the measured pIC50 for "COCc1nn(Cc2ccc3c(c2)CCN(C)C3)cc1C(=O)NCc1c(-n2ccc(C#N)n2)ccc(OC)c1F"
Reply | > 8.00

Ask | Give the measured pIC50 for "COCc1nn(Cc2ccc3c(c2)CN(C(C)C)CC3)cc1C(=O)NCc1c(-n2cc(C)nn2)ccc(OC)c1F"
Reply | > 8.00

Ask | Give the measured pIC50 for "COCc1nn(Cc2ccc3c(c2)CCN(C2CC2)C3)cc1C(=O)NCc1c(-n2cnc(C(F)F)n2)ccc(OC)c1F"
Reply | 7.00 to 7.52

---

Here's what we have: IC50 numbers for Human FXIa (Homo sapiens (Human)).

As a guide, the following entries are already answered.
COCc1nn(Cc2ccc3c(c2)C(=O)N(C)CC3)cc1C(=O)NCc1c(-n2cc(C)nn2)ccc(OC)c1F ... 11.3 µM
COCc1nn(Cc2ccc3c(c2)C2CCC3N2C(C)C)cc1C(=O)NCc1c(-n2cc(C)nn2)ccc(OC)c1F (stereo not shown) ... > 40 µM
COCc1nn(Cc2ccc3c(c2)CN(C2CC2)CC3)cc1C(=O)NCc1c(-n2cnc(C(F)F)n2)ccc(OC)c1F ... > 40 µM

Ask | Please tell me the measured IC50 for "COCc1nn(Cc2ccc3c(c2)CN(C)CC3)cc1C(=O)NCc1c(-n2cnc(C(F)(F)F)n2)ccc(OC)c1F" ; system: Human FXIa (Homo sapiens (Human)).
Reply | > 40 µM

Ask | Please tell me the measured IC50 for "COCc1nn(Cc2ccc3c(c2)CN(C)CC3)cc1C(=O)NCc1c(-n2cnc(C(F)F)n2)ccc(OC)c1F" ; system: Human FXIa (Homo sapiens (Human)).
Reply | > 40 µM

Ask | Please tell me the measured IC50 for "COc1ccc(-n2cnc(C(F)(F)F)n2)c(CNC(=O)c2cnn(Cc3ccc4c(c3)CN(C)CC4)c2)c1F" ; system: Human FXIa (Homo sapiens (Human)).
Reply | 34.6 µM

Ask | Please tell me the measured IC50 for "COCc1nn(Cc2cnc3c(c2)CCN(CC(F)F)C3)cc1C(=O)NCc1c(-n2cc(C)nn2)ccc(OC)c1F" ; system: Human FXIa (Homo sapiens (Human)).
Reply | > 4 µM

---

Below, each of the compounds is paired with its reported pIC50 value.
- Measured Target: Human plasma kallikrein (Homo sapiens (Human), UniProt P03952)
- Assay Text: Determination of the IC50 for plasma kallikrein (fluorogenic substrate H-DPro-Phe-Arg-AFC)
- Particulars: class symbols A-D, read-out: IC50 (human PKal)
pIC50: −log10 of the molar value.

Ask | Please tell me the measured pIC50 for COCc1nn(Cc2ccc3ccncc3c2)cc1C(=O)NCc1c(-n2cc(C)nn2)ccc(OC)c1F [RC1, reference compound] ; system: Human plasma kallikrein (Homo sapiens (Human), UniProt P03952).
Reply | 6.00 to 7.00

Ask | Please tell me the measured pIC50 for COc1ccc(-n2cc(C)nn2)c(CNC(=O)c2cn(Cc3ccc4c(c3)CN(C(C)C)C4)nn2)c1F [Example 153] ; system: Human plasma kallikrein (Homo sapiens (Human), UniProt P03952).
Reply | > 8.00

Ask | Please tell me the measured pIC50 for COCc1nn(Cc2ccc3c(c2)CN(C2CC2)CC3)cc1C(=O)NCc1c(-n2ccc(C#N)n2)ccc(OC)c1F [Example 21] ; system: Human plasma kallikrein (Homo sapiens (Human), UniProt P03952).
Reply | > 8.00

Ask | Please tell me the measured pIC50 for COCc1nn(Cc2ccc3c(c2)CN(C)CC3)cc1C(=O)NCc1c(-n2cnc(C(F)(F)F)n2)ccc(OC)c1F [Example 13] ; system: Human plasma kallikrein (Homo sapiens (Human), UniProt P03952).
Reply | > 8.00

Ask | Please tell me the measured pIC50 for COc1ccc(-n2cc(C)nn2)c(CNC(=O)c2cnn(Cc3ccc4c(c3)CN(C)CC4)c2)c1F [Example 3] ; system: Human plasma kallikrein (Homo sapiens (Human), UniProt P03952).
Reply | > 8.00

Ask | Please tell me the measured pIC50 for COCc1nn(Cc2ccc3c(c2)CN(C)CC32CC2)cc1C(=O)NCc1c(-n2cc(C)nn2)ccc(OC)c1F [Example 126] ; system: Human plasma kallikrein (Homo sapiens (Human), UniProt P03952).
Reply | > 8.00

---

Here's what we have: IC50 numbers for Human KLK1 (Homo sapiens (Human)).

COCc1nn(Cc2ccc3c(c2)CN(C(C)C)CC3)cc1C(=O)NCc1c(-n2ccc(C#N)n2)ccc(OC)c1F [Example 24] ... > 40 µM
COc1ccc(-n2cc(C)nn2)c(CNC(=O)c2cn(Cc3ccc4c(c3)CN(C)CC4)c(C)n2)c1F [Example 151] ... > 40 µM

Ask | Give the measured IC50 for COCc1nn(Cc2ccc3c(c2)CN(C)CC3(F)F)cc1C(=O)NCc1c(-n2cc(C)nn2)ccc(OC)c1F [Example 106]
Reply | > 40 µM

Ask | Give the measured IC50 for COCc1nn(Cc2cc(F)c3c(c2)CCN(C)C3)cc1C(=O)NCc1c(-n2cc(C)nn2)ccc(OC)c1F [Example 116]
Reply | > 4 µM

Ask | Give the measured IC50 for COCc1nc(C(=O)NCc2c(-n3cc(C)nn3)ccc(OC)c2F)cn1Cc1ccc2c(c1)CN(C)CC2 [Example 148]
Reply | > 40 µM

Ask | Give the measured IC50 for COCc1nn(Cc2ccc3c(c2)CN(C)CC3)cc1C(=O)NCc1c(-n2ccc(C(F)(F)F)n2)ccc(OC)c1F [Example 8]
Reply | > 40 µM

Ask | Give the measured IC50 for COCc1nn(Cc2cnc3c(c2)CCN(CC(F)F)C3)cc1C(=O)NCc1c(-n2cc(C)nn2)ccc(OC)c1F [Example 115]
Reply | > 4 µM
